test: Metabolic stability in mouse liver microsomes (MLM); format: in vitro ADME, CD-1 mouse; conditions: CD-1
Label T when microsomal CLint at 0.1 μM is strictly below 400 µL/min/mg; at or above that, label F.

Some solved entries appear below for comparison.
O=C1CCC(N2C(=O)c3cccc(N4CCN(CCOCCOCCNC(=O)[C@]5(Cc6cccc(Nc7nccs7)n6)CC[C@@H](Oc6cccc(Cl)c6F)CC5)CC4)c3C2=O)C(=O)N1 (some centres unmarked) [PROTAC 1]
F
O=C1CCC(N2C(=O)c3ccc(N4CCN(CCNC(=O)[C@]5(Cc6cccc(Nc7nccs7)n6)CC[C@@H](Oc6cccc(Cl)c6F)CC5)CC4)cc3C2=O)C(=O)N1 (some centres unmarked) [PROTAC 4]
F
O=C1CCC(Nc2ccc(N3CCN(C4CN(C(=O)[C@]5(Cc6cccc(Nc7nccs7)n6)CC[C@@H](Oc6cccc(Cl)c6F)CC5)C4)CC3)c(F)c2)C(=O)N1 (some centres unmarked) [PROTAC 18]
T
O=C1CCC(N2C(=O)c3cccc(OCCOCCOCCN4CCN(C(=O)[C@]5(Cc6cccc(Nc7nccs7)n6)CC[C@@H](Oc6cccc(Cl)c6F)CC5)CC4)c3C2=O)C(=O)N1 (some centres unmarked) [PROTAC 3]
F

Please find the next molecule below.
# strict comparison: is reported microsomal CLint at 0.1 μM < 400 µL/min/mg? input = Cc1cc(Nc2ccc(F)c(CC3(C(=O)N4CCC(CN5CCN(c6ccc(N7CCC(=O)NC7=O)cn6)CC5)CC4)CCN(Cc4cccc(Cl)c4F)CC3)n2)n[nH]1 [SK4454]
F

* * *

assay: Metabolic stability in mouse hepatocytes (MH); assay type: in vitro ADME, CD-1 mouse; conditions: CD-1
OUTCOME_MEASURE: hepatocyte CLint at 1 μM

O=C1CCN(c2ccc(N3CCN(CC4CN(C(=O)[C@]5(Cc6cccc(Nc7nccs7)n6)CC[C@@H](Oc6cccc(Cl)c6F)CC5)C4)CC3)nc2)C(=O)N1 [PROTAC 23]
< 4.1 µL/min/1e6 cells
Cc1cc(Nc2ccc(F)c(CC3(C(=O)N4CCC(F)(CN5CCN(c6ccc(N7CCC(=O)NC7=O)cn6)CC5)CC4)CCN(Cc4cccc(Cl)c4F)CC3)n2)n[nH]1 [SK5527]
4.4 µL/min/1e6 cells

Now consider the entry below.
Which hepatocyte CLint at 1 μM is listed for Cc1cc(Nc2ccc(F)c(CC3(C(=O)N4CCC(CN5CCN(c6ccc(N7CCC(=O)NC7=O)cn6)CC5)CC4)CCN(Cc4cccc(Cl)c4F)CC3)n2)n[nH]1 [SK4454] ?
< 4.1 µL/min/1e6 cells

* * *

A collection of compounds and their measured DC50
biological target: AURKA (Homo sapiens, UniProt O14965); experiment: AURKA degradation, Simple Western; type: cell-based; set-up: Representative Western blot showing levels of endogenous proteins MDR1, MYCN, AURKA, and CRBN in untreated cell lines; endogenous in cells; host or cells: NGP, IMR-32, SJNB-8, SK-N-BE(2)-C, SK-N-SH, SK-N-AS, SJNB-1, RPE, HEK293T; conditions: read-out: AURKA DC50
Sequence (O14965 whole entry): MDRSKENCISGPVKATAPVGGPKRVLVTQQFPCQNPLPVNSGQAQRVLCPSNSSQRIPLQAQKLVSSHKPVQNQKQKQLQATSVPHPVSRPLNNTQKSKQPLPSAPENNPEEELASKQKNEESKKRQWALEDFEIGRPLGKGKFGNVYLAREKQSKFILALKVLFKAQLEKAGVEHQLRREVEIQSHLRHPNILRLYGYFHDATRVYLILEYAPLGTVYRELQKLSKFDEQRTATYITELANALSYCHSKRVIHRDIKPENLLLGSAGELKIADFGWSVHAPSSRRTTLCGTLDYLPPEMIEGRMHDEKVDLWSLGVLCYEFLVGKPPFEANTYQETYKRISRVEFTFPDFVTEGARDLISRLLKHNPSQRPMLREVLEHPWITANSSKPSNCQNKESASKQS
Your answer is read as nM, so omit the unit and give the number.

O=C1CCC(N2C(=O)c3ccc(OCCOCCN4CCN(C(=O)[C@]5(Cc6cccc(Nc7nccs7)n6)CC[C@@H](Oc6cccc(Cl)c6F)CC5)CC4)cc3C2=O)C(=O)N1 (some centres unmarked)
4.9

Which DC50 is listed for O=C1CCN(c2ccc(N3CCN(C4CCN(C(=O)[C@]5(Cc6cccc(Nc7nccs7)n6)CC[C@@H](Oc6cccc(Cl)c6F)CC5)C4)CC3)nc2)C(=O)N1 (some centres unmarked) ?
5

Can you handle Cc1cc(Nc2ccc(F)c(CC3(C(=O)N4CC(N5CCN(c6ccc(NC7CCC(=O)NC7=O)cc6F)CC5)C4)CCN(Cc4cccc(Cl)c4F)CC3)n2)n[nH]1 (centres unmarked) next?
7.8

Can you handle O=C1CCN(c2ccc(N3CCN(CC4CCN(C(=O)[C@]5(Cc6cccc(Nc7nccs7)n6)CC[C@@H](Oc6cccc(Cl)c6F)CC5)C4)CC3)nc2)C(=O)N1 (some centres unmarked) next?
3.4

Can you handle O=C1CCC(N2C(=O)c3ccc(N4CCN(CCNC(=O)[C@]5(Cc6cccc(Nc7nccs7)n6)CC[C@@H](Oc6cccc(Cl)c6F)CC5)CC4)cc3C2=O)C(=O)N1 (some centres unmarked) next?
4.8

* * *

tested on: NGP; test: IncuCyte live-cell imaging, antiproliferative effect; format: cell-based; settings: Homo sapiens, 72 h, read-out: pGI50 (converted)
OUTCOME_MEASURE: GI50 (nM)
Your answer is read as nM, so omit the unit and give the number.

Below: 8 compounds and their reported GI50.
O=C1CCC(Nc2ccc(N3CCN(CCNC(=O)[C@]4(Cc5cccc(Nc6nccs6)n5)CC[C@@H](Oc5cccc(Cl)c5F)CC4)CC3)cc2)C(=O)N1 (stereo partly drawn) [PROTAC 13]
29.5
O=C1CCC(N2C(=O)c3ccc(OCCN4CCN(C(=O)[C@]5(Cc6cccc(Nc7nccs7)n6)CC[C@@H](Oc6cccc(Cl)c6F)CC5)CC4)cc3C2=O)C(=O)N1 (stereo partly drawn) [PROTAC 10]
52.5
O=C1CCC(N2C(=O)c3cccc(OCCOCCOCCOCCNC(=O)[C@]4(Cc5cccc(Nc6nccs6)n5)CC[C@@H](Oc5cccc(Cl)c5F)CC4)c3C2=O)C(=O)N1 (stereo partly drawn) [SK2188, reference compound]
39.8
O=C1CCN(Cc2ccc(C3CCN(CC4CCN(C(=O)[C@]5(Cc6cccc(Nc7nccs7)n6)CC[C@@H](Oc6cccc(Cl)c6F)CC5)CC4)CC3)nc2)C(=O)N1 [PROTAC 21]
45.7
O=C1CCC(Nc2ccc(N3CCN(CC4CCN(C(=O)[C@]5(Cc6cccc(Nc7nccs7)n6)CC[C@@H](Oc6cccc(Cl)c6F)CC5)CC4)CC3)c(F)c2)C(=O)N1 (stereo partly drawn) [PROTAC 19]
52.5
Cc1cc(Nc2ccc(F)c(CC3(C(=O)N4CC(N5CCN(c6ccc(NC7CCC(=O)NC7=O)cc6F)CC5)C4)CCN(Cc4cccc(Cl)c4F)CC3)n2)n[nH]1 (stereo not drawn) [PROTAC 29]
36.3
O=C1CCC(Nc2ccc(N3CCN(C(=O)COCCOCCNC(=O)[C@]4(Cc5cccc(Nc6nccs6)n5)CC[C@@H](Oc5cccc(Cl)c5F)CC4)CC3)cc2)C(=O)N1 (stereo partly drawn) [PROTAC 16]
77.6
Cc1cc(Nc2ccc(F)c(CC3(C(=O)N4CCC(F)(CN5CCN(c6ccc(N7CCC(=O)NC7=O)cn6)CC5)CC4)CCN(Cc4cccc(Cl)c4F)CC3)n2)n[nH]1 [SK5527]
41.7

Which GI50 is listed for O=C1CCN(c2ccc(N3CCN(CC4CCN(C(=O)[C@]5(Cc6cccc(Nc7nccs7)n6)CC[C@@H](Oc6cccc(Cl)c6F)CC5)CC4)CC3)nc2)C(=O)N1 [PROTAC 24] ?
27.5

Can you handle Cc1cc(Nc2ccc(F)c(CC3(C(=O)N4CCC(CN5CCC(c6ccc(CN7CCC(=O)NC7=O)cn6)CC5)CC4)CCN(Cc4cccc(Cl)c4F)CC3)n2)n[nH]1 [PROTAC 30] next?
158

Can you handle O=C1CCN(c2ccc(C3CCN(C4CN(C(=O)[C@]5(Cc6cccc(Nc7nccs7)n6)CC[C@@H](Oc6cccc(Cl)c6F)CC5)C4)CC3)nc2)C(=O)N1 [PROTAC 28] next?
47.9

Can you handle Cc1cc(Nc2ccc(F)c(CC3(C(=O)N4CC(N5CCC(c6ccc(N7CCC(=O)NC7=O)cn6)CC5)C4)CCN(Cc4cccc(Cl)c4F)CC3)n2)n[nH]1 [PROTAC 35] next?
331

Can you handle O=C1CCC(N2C(=O)c3cccc(OCCOCCOCCN4CCN(C(=O)[C@]5(Cc6cccc(Nc7nccs7)n6)CC[C@@H](Oc6cccc(Cl)c6F)CC5)CC4)c3C2=O)C(=O)N1 (stereo partly drawn) [PROTAC 3] next?
41.7

Can you handle O=C1CCN(c2ccc(N3CCN(CC4CCN(C(=O)[C@]5(Cc6cccc(Nc7nccs7)n6)CC[C@@H](Oc6cccc(Cl)c6F)CC5)C4)CC3)nc2)C(=O)N1 (stereo partly drawn) [PROTAC 25] next?
32.4

Can you handle Cc1cc(Nc2ccc(F)c(CC3(C(=O)N4CCC(CN5CCN(c6ccc(N7CCC(=O)NC7=O)cn6)CC5)CC4)CCN(Cc4cccc(Cl)c4F)CC3)n2)n[nH]1 [SK4454] next?
34.7

Can you handle Cc1cc(Nc2ccc(F)c(CC3(C(=O)N4CCC(F)(C(=O)N5CCC(c6ccc(N7CCC(=O)NC7=O)cn6)CC5)CC4)CCN(Cc4cccc(Cl)c4F)CC3)n2)n[nH]1 [PROTAC 38] next?
145

* * *

test: In vivo pharmacokinetics study; design: species or system ICR (CD-1) mice; conditions: male, ICR (CD-1), mouse, plasma, iv, 15 mg/kg, IV 15 mg/kg, noncompartmental analysis; read-out: CLIV, mouse (in vivo systemic clearance)
OUTCOME_MEASURE: clearance (mL/min/kg)
Your answer is read as mL/min/kg, so omit the unit and give the number.

Below: 2 compounds and their reported clearance.
Cc1cc(Nc2ccc(F)c(CC3(C(=O)N4CC(N5CCN(c6ccc(NC7CCC(=O)NC7=O)cc6F)CC5)C4)CCN(Cc4cccc(Cl)c4F)CC3)n2)n[nH]1 (stereo not drawn)
38
Cc1cc(Nc2ccc(F)c(CC3(C(=O)N4CCC(F)(CN5CCN(c6ccc(N7CCC(=O)NC7=O)cn6)CC5)CC4)CCN(Cc4cccc(Cl)c4F)CC3)n2)n[nH]1
12

Which clearance is listed for O=C1CCC(N2C(=O)c3cccc(OCCOCCOCCOCCNC(=O)[C@]4(Cc5cccc(Nc6nccs6)n5)CC[C@@H](Oc5cccc(Cl)c5F)CC4)c3C2=O)C(=O)N1 (stereo partly drawn) [SK2188, reference compound] ?
114
